Biological target: various mutants of kinase EGFR (BaF3 cell lines stably transfected with kinase) (Homo sapiens, UniProt P00533, L858R)
Construct: expressed in transfected cells; host or cells: BaF3
Sequence (P00533 25-1210 L858R): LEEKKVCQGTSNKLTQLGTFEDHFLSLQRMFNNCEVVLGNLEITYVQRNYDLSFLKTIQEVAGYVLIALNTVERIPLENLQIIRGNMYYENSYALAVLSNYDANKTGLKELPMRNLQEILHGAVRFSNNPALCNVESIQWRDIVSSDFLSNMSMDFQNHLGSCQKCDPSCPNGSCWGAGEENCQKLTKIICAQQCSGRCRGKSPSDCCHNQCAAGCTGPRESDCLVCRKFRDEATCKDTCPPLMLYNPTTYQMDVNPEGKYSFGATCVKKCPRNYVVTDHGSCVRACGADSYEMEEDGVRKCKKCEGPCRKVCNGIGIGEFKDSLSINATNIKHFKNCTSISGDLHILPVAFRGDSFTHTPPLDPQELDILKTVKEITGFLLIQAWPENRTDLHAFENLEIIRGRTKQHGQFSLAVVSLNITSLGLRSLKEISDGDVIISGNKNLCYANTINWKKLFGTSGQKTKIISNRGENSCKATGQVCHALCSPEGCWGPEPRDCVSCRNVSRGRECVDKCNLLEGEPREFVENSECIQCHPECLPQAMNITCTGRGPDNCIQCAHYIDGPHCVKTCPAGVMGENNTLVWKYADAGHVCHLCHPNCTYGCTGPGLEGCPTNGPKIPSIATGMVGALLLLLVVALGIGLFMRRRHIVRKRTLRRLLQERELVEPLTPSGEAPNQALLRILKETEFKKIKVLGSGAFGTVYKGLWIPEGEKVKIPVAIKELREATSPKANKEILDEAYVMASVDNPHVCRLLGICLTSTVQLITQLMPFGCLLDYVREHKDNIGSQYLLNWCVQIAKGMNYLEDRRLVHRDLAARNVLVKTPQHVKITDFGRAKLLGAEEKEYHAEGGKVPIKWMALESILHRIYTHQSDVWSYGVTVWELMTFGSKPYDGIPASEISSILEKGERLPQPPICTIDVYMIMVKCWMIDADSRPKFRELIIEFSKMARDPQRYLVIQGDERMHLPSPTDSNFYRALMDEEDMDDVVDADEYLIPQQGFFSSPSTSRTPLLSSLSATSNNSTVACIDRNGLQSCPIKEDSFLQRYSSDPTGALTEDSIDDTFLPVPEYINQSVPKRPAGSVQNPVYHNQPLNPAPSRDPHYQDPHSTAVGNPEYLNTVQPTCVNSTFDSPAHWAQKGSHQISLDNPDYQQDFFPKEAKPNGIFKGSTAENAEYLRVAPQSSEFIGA
Experiment: Growth inhibitory activity of compounds on BaF3 cell lines stably transfected with kinase (MTS, 48 h)
Assay type: cell-based
Settings: BaF3 cell line stably transfected with EGFR L858R, read-out: L858R growth inhibitory activity IC50
Examples of compounds with documented IC50 follow.

Some compounds with known IC50 results, for comparison:
CCc1cc(Nc2ncc(Br)c(Nc3ccc4nccnc4c3NS(C)(=O)=O)n2)c(OC(F)(F)F)cc1N1CCC(N2CCN(C)CC2)CC1 :: 50 to 500 nM
COc1ccc(N2CCC(O)CC2)cc1Nc1ncc(F)c(Nc2ccc3nccnc3c2N(C)S(=O)(=O)C2CC2)n1 :: 50 to 500 nM

# input compound: CCn1cc(Nc2ncc(Br)c(Nc3ccc4nccnc4c3N(C)S(C)(=O)=O)n2)c(C)n1 ; wanted: its IC50
500 to 2500 nM

* * *

Examples of compounds with documented IC50 follow.
Molecular target: various mutants of kinase EGFR (BaF3 cell lines stably transfected with kinase) (Homo sapiens, UniProt P00533, L858R/T790M)
Construct: expressed in transfected cells; host or cells: BaF3
Sequence (P00533 25-1210 T790M/L858R): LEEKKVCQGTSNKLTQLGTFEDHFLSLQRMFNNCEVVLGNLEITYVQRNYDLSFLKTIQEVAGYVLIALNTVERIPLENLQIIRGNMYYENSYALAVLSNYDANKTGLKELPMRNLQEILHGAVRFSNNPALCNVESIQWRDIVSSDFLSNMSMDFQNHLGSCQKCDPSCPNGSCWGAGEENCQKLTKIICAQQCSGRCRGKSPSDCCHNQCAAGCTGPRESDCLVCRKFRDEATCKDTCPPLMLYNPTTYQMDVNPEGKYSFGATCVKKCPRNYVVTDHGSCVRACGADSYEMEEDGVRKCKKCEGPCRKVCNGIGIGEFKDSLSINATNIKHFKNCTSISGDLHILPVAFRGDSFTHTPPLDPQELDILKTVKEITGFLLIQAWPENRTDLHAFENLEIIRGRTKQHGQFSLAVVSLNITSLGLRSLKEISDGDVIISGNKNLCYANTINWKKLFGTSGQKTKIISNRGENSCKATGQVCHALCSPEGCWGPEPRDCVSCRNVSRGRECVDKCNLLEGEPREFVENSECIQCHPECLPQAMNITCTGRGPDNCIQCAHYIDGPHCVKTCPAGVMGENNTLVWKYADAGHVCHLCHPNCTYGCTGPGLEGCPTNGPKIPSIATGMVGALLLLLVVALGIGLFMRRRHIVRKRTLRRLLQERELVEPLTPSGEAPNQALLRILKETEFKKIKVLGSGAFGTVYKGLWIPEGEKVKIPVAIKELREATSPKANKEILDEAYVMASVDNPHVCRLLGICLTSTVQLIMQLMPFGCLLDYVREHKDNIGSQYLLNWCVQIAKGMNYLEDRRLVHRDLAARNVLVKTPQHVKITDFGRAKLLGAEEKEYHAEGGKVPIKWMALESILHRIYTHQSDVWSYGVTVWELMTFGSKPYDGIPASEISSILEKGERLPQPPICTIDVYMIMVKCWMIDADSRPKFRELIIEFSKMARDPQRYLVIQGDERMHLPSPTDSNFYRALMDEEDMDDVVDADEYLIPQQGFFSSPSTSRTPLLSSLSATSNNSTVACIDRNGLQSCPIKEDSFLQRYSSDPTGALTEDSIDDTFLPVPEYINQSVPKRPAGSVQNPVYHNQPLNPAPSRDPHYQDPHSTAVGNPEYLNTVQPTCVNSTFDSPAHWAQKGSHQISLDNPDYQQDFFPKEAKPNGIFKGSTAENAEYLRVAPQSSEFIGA
Assay: Growth inhibitory activity of compounds on BaF3 cell lines stably transfected with kinase (MTS, 48 h)
Format: cell-based
Conditions: BaF3 cells stably transfected with EGFR L858R/T790M, read-out: IC50, growth inhibition, L858R/T790M

Some compounds with known IC50 results, for comparison:
CCc1cc(Nc2ncc(OC)c(Nc3ccc4nccnc4c3N(C)S(C)(=O)=O)n2)c(OC(F)(F)F)cc1N1CCC(N2CCN(C)CC2)CC1 :: ≤ 0.05 µM
COc1cc(N2CCC(N3CCN(C)CC3)CC2)c(C)cc1Nc1ncc(C#N)c(Nc2ccc3nccnc3c2N(C)S(C)(=O)=O)n1 :: 0.05 to 0.5 µM
COc1cc(N2CCC(N(C)C)C2)c(C)cc1Nc1ncc(Cl)c(Nc2ccc3nccnc3c2N(C)S(=O)(=O)C(F)(F)F)n1 (stereo not shown) :: 0.5 to 2.5 µM
COc1ccc(CN2CCN(C)CC2)cc1Nc1ncc(Br)c(Nc2ccc3nccnc3c2N(C)S(C)(=O)=O)n1 :: 0.05 to 0.5 µM
COc1cc(N2CCC(N3CCN(C)CC3)CC2)ccc1Nc1ncc(Cl)c(Nc2ccc3nccnc3c2N(C)S(=O)(=O)C2CC2)n1 :: 0.05 to 0.5 µM

Okay, now this compound:
# input compound: CCc1cc(Nc2ncc(Cl)c(Nc3ccc4nccnc4c3N(C)S(C)(=O)=O)n2)c(OC)nc1N1CCC(N2CCN(C)CC2)CC1 ; wanted: its IC50
≤ 0.05 µM

* * *

Target: various mutants of kinase EGFR (BaF3 cell lines stably transfected with kinase) (Homo sapiens, UniProt P00533, T790M/C797S, form not given)
Construct: other: BaF3 cells stably transfected with EGFR Δ19Del/T790M/C797S; MTS, 48; other: BaF3 cell line stably transfected with EGFR Δ19Del/T790M/C7
Sequence (P00533 with tags, fused parts or gaps DEL746-750/T790M/C797S, form open): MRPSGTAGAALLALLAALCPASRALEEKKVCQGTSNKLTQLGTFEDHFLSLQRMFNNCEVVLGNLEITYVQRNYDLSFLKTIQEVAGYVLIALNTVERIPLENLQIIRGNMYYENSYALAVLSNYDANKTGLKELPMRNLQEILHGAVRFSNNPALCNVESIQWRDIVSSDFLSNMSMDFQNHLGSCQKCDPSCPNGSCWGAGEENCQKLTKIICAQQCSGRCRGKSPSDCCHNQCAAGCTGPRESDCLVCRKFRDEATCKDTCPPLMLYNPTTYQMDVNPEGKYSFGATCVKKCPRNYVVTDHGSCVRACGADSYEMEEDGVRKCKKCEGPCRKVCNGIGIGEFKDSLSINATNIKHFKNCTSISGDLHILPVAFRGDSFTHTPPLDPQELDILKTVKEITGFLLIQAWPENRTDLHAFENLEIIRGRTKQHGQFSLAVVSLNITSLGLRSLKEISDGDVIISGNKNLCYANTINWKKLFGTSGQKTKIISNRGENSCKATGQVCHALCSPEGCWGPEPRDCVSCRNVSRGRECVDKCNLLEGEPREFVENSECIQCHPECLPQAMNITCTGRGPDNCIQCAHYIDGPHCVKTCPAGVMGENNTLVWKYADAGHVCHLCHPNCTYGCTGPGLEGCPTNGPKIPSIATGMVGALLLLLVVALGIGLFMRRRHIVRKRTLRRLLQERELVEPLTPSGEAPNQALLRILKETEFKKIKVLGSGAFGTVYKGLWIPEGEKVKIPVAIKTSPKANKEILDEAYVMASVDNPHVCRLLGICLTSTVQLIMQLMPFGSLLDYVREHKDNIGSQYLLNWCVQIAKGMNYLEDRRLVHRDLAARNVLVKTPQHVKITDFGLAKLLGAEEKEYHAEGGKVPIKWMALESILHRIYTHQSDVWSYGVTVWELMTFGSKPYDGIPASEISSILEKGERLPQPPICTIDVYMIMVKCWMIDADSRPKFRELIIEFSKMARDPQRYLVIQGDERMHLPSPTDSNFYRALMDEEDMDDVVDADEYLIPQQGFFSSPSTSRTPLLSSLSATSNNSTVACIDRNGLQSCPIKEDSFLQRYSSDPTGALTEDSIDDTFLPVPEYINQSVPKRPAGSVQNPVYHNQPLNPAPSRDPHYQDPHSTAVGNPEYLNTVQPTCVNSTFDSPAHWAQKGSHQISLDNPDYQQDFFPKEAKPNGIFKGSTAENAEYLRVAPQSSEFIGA
Experiment: Growth inhibitory activity of compounds on BaF3 cell lines stably transfected with kinase (MTS, 48 h)
Format: cell-based
Conditions: BaF3 cells stably transfected with EGFR Δ19Del/T790M/C797S, read-out: IC50, growth inhibition, Δ19Del/T790M/C797S
Examples of molecules with documented IC50 follow.

Some molecules with known IC50 results, for comparison:
COc1cc(N2CCC(N3CCN(C)CC3)CC2)ccc1Nc1ncc(Br)c(Nc2ccc3nccnc3c2N(C)S(=O)(=O)C(F)(F)F)n1 [Compound I-256] :: 50 to 500 nM
COc1cc(N2CCC(N(C)C)C2)c(C)cc1Nc1ncc(Br)c(Nc2ccc3nccnc3c2N(C)S(=O)(=O)C2CC2)n1 (stereo not shown) [Compound I-222] :: ≤ 50 nM
CCc1cc(Nc2ncc(Br)c(Nc3ccc4nccnc4c3N(C)S(=O)(=O)C3CC3)n2)c(OC)nc1N1CCC(N2CCN(C)CC2)CC1 [Compound I-218] :: ≤ 50 nM

# input molecule: COc1cc(N2CCC(N3CCN(C)CC3)CC2)c(CC2CC2)cc1Nc1ncc(F)c(Nc2ccc3nccnc3c2N(C)S(=O)(=O)C2CC2)n1 [Compound I-251] ; wanted: its IC50
50 to 500 nM
